We begin with pKi values for Beta-secretase 1 (Homo sapiens, UniProt P56817), as collected from the published literature.
pKi: −log10 of the molar value.
property.label: pKi

compound_string=[2H]C([2H])([2H])Oc1cnc(C(=O)Nc2ccc(F)c([C@]3(CF)CC[C@](F)(CF)C(N)=N3)c2)cn1 target_or_system="Beta-secretase 1 (Homo sapiens, UniProt P56817)" value=7.17
compound_string=CN1C(=N)N[C@](C)(c2sc(-c3nnc(-c4ccc(-c5ccon5)cc4)o3)cc2Cl)CS1(=O)=O target_or_system="Beta-secretase 1 (Homo sapiens, UniProt P56817)" value=6.96
compound_string=CN1C(=N)N[C@](C)(c2sc(-c3ccc(-n4nccn4)cc3)cc2Cl)CS1(=O)=O target_or_system="Beta-secretase 1 (Homo sapiens, UniProt P56817)" value=5.64
compound_string=C[C@@]1(c2cc(-c3cncc(Cl)c3)ccc2F)Cc2ncncc2C(=N)N1 target_or_system="Beta-secretase 1 (Homo sapiens, UniProt P56817)" value=6.60

A: CN1C(=N)N[C@](C)(c2sc3c(-c4cnn(-c5ccccc5)c4)cccc3c2F)CS1(=O)=O
B: C[C@@]1(c2cc(-c3cccc(C#N)c3)cs2)Cc2nc(C3CC3)ncc2C(=N)N1
In: Could you check which of A and B has a smaller value for pKi? Your choice should be expressed through its label.
Out: A
(A: 5.84, B: 6.89)
